Target: acetylcholine receptor
Assay: SPR, AchR immobilized on CM5 chip, peptide 10 uM
observed-property: Binding affinity (RU)

Examples with their reported Binding affinity (RU) follow.
RKRRTK [6mer-1-383] ... 148
KRWILR [6mer-1-399] ... 125

A: KRVFLK [6mer-1-360]
B: RRANMR [6mer-1-755]
Which value of Binding affinity (RU) is greater, the one for A or the one for B ? Kindly give the label for the entry you pick.
A
(A: 148 RU, B: 25 RU)

A: RKMTWR [6mer-1-759]
B: KRENIK [6mer-1-750]
C: RRFHWR [6mer-1-742]
D: KRGVLK [6mer-1-373]
Order each entry by recorded Binding affinity (RU), climbing from the minimum. Arrange the labels as the request states and list them.
C, A, B, D

a: KRTEIR [6mer-1-773]
b: KKVRRR [6mer-1-394]
// returns a or b , whichever has the lower Binding affinity (RU) Kindly give the label for the entry you pick.
a

a: KRRQTR [6mer-1-357]
b: RRNPFK [6mer-1-764]
// returns a or b , whichever has the lower Binding affinity (RU) Kindly give the label for the entry you pick.
b
(b: 24 RU, a: 148 RU)

I: RRDDFR [6mer-1-778]
II: KRSLTR [6mer-1-371]
// returns I or II , whichever has the lower Binding affinity (RU) Kindly give the label for the entry you pick.
I

I: KKKMFK [6mer-1-733]
II: RKHEIK [6mer-1-744]
III: KKSIQK [6mer-1-339]
Order each entry by recorded Binding affinity (RU), climbing from the minimum. Arrange the labels as the request states and list them.
I, II, III
(I: 21 RU, II: 31 RU, III: 147 RU)
